Cited source for all entries: ChEMBL document CHEMBL5608212

target: Replicase polyprotein 1ab (Severe acute respiratory syndrome coronavirus 2, UniProt P0DTD1); assay: Inhibition of SARS-CoV-2 3CLpro using Dabcyl-KTSAVLQSGFRKM-Glu(Edans) as substrate preincubated for 60 mins in absence of GSH followed by substrate addition and measured after 30 mins by FRET assay; conditions: read-out: IC50
pIC50: −log10 of the molar value.

sample-smiles: CSc1nc2cc3c(cc2n1C(=O)c1ccc(C)cc1)OCCO3
pIC50: 6.42

---

molecular target: Replicase polyprotein 1ab (Severe acute respiratory syndrome coronavirus 2, UniProt P0DTD1); assay: Inhibition of SARS-CoV-2 3CLpro using Dabcyl-KTSAVLQSGFRKM-Glu(Edans) as substrate preincubated for 1 hrs in presence of 2 mM GSH followed by substrate addition and measured after 30 mins by FRET assay; conditions: read-out: IC50
pIC50: −log10 of the molar value.

sample-smiles: CSc1nc2ccccc2n1C(=O)c1ccc(C(F)(F)F)cc1
rel: =
pIC50: 5.57
//
sample-smiles: CSc1nc2cc3c(cc2n1C(=O)c1ccc(C)cc1)OCO3
rel: =
pIC50: 7.15
//
sample-smiles: CSc1nc2ccccc2n1C(C)=O
rel: <
pIC50: 4.00

---

// values below are reported IC50
assay: Inhibition of C-terminal 6-His tagged recombinant SARS-CoV 3CLpro (Ser1 to Gln306 residues) extracted from Escherichia coli using Dabcyl-KTSAVLQSGFRKM-Glu(Edans) as substrate preincubated 1 hr in presence of 2 mM GSH followed by substrate addition and measured after 30 mins by FRET assay; set-up: species or system Severe acute respiratory syndrome-related coronavirus
endpoint-name: IC50

molecule: Cc1ccc(C(=O)n2c(C)nc3ccccc32)cc1F
reading: 210 nM
--
molecule: CC(C)C[C@H](NC(=O)OCc1ccccc1)C(=O)N[C@@H](CC1CCNC1=O)C(O)S(=O)(=O)O (stereo partly specified)
reading: 50 nM
--
molecule: CSc1nc2cc3c(cc2n1C(=O)c1ccc(C)cc1)OCCO3
reading: 1700 nM
--
molecule: CSc1nc2ccccc2n1C(=O)c1ccc(C)cc1
reading: 1600 nM
--
molecule: CSc1nc2ccccc2n1C(=O)c1ccc(C)c(F)c1
reading: 340 nM
--
molecule: CSc1nc2cc3c(cc2n1C(=O)c1ccc(C)cc1)OCO3
reading: 150 nM

---

assay: Inhibition of MERS-CoV 3CLpro using Dabcyl-KTSAVLQSGFRKM-Glu(Edans) as substrate preincubated 1 hr in presence of 2 mM GSH followed by substrate addition and measured after 30 mins by FRET assay; parameters: species or system Middle East respiratory syndrome-related coronavirus
pIC50: −log10 of the molar value.

compound: CC(C)C[C@H](NC(=O)OCc1ccccc1)C(=O)N[C@@H](CC1CCNC1=O)C(O)S(=O)(=O)O (some centres not stated)
pIC50: 6.47

compound: CSc1nc2ccccc2n1C(=O)c1ccc(C)cc1
pIC50: 5.30

compound: CSc1nc2cc3c(cc2n1C(=O)c1ccc(C)c(F)c1)OCO3
pIC50: 5.54

compound: Cc1ccc(C(=O)n2c(C)nc3ccccc32)cc1F
pIC50: 5.55

compound: CSc1nc2ccccc2n1C(=O)c1ccc(C)c(F)c1
pIC50: 5.89

compound: CSc1nc2cc3c(cc2n1C(=O)c1ccc(C)cc1)OCCO3
pIC50: 5.60

compound: CSc1nc2cc3c(cc2n1C(=O)c1ccc(C)cc1)OCO3
pIC50: 6.00

---

// values below are reported IC50
experiment: Inhibition of human cathepsin 1 using QXL520/HiLyteFlour 488 as substrate preincubated for 60 mins and measured after 30 mins by fluorescence based assay

compound: CSc1nc2cc3c(cc2n1C(=O)c1ccc(C)cc1)OCCO3
IC50: > 100 µM
--
compound: CC(C)C[C@H](NC(=O)OCc1ccccc1)C(=O)N[C@@H](CC1CCNC1=O)C(O)S(=O)(=O)O (stereo partly specified)
IC50: 0.001 µM
--
compound: CSc1nc2cc3c(cc2n1C(=O)c1ccc(C)cc1)OCO3
IC50: > 100 µM
--
compound: CSc1nc2ccccc2n1C(=O)c1ccc(C)c(F)c1
IC50: > 100 µM
--
compound: Cc1ccc(C(=O)n2c(C)nc3ccccc32)cc1F
IC50: > 100 µM
--
compound: CSc1nc2ccccc2n1C(=O)c1ccc(C)cc1
IC50: > 100 µM

---

experiment: GSH reactivity in HEPES buffer at pH 7.4 assessed as half life at 1 uM; type: ADME; conditions: glutathione (GSH) in HEPES buffer
endpoint-name: half-life at 1 µM (min)

sample-smiles: CSc1nc2cc3c(cc2n1C(=O)c1ccc(C)cc1)OCO3
endpoint-name: half-life at 1 µM
reading: 16

---

target: UniProt P0DTD1; assay: Inhibition of SARS-CoV-2 3CLpro using Dabcyl-KTSAVLQSGFRKM-Glu(Edans) as substrate preincubated for 1 hrs in presence of 2 mM GSH followed by substrate addition and measured after 30 mins by FRET assay; conditions: read-out: IC50

sample-smiles: Cc1ccc(C(=O)n2ncc3ccccc32)cc1
rel: >
IC50 (µM): 100
//
sample-smiles: CSc1nc2ccccc2n1C(=O)c1cccc(C)c1
rel: =
IC50 (µM): 2.1
//
sample-smiles: Cc1ccc(C(=O)n2c(S)nc3ccccc32)cc1
rel: >
IC50 (µM): 100
//
sample-smiles: CSc1nc2ccccc2n1S(=O)(=O)c1ccc(C)cc1
rel: >
IC50 (µM): 100
//
sample-smiles: CCSc1nc2ccccc2n1C(=O)c1ccc(C)cc1
rel: =
IC50 (µM): 3.76
//
sample-smiles: CSc1nc2cc(Cl)ccc2n1C(=O)c1ccc(C)cc1
rel: =
IC50 (µM): 0.55
//
sample-smiles: CSc1nc2ccccc2n1C(=O)c1ccc(F)cc1
rel: =
IC50 (µM): 3.8
//
sample-smiles: CSc1nc2cc3c(cc2n1C(=O)c1ccc(C)c(F)c1)OCCO3
rel: =
IC50 (µM): 0.27
//
sample-smiles: COc1nc2ccccc2n1C(=O)c1ccc(C)cc1
rel: >
IC50 (µM): 100
//
sample-smiles: CSc1nc2cc(C#N)ccc2n1C(=O)c1ccc(C)c(F)c1
rel: =
IC50 (µM): 0.89
//
sample-smiles: CCc1ccc(C(=O)n2c(SC)nc3ccccc32)cc1
rel: =
IC50 (µM): 1.8
//
sample-smiles: CSc1nc2ccccc2n1C(=O)NCc1ccc(C)cc1
rel: >
IC50 (µM): 100
//
sample-smiles: CSc1nc2ccccc2n1C(=O)Oc1ccccc1
rel: >
IC50 (µM): 100
//
sample-smiles: CSc1nc2ccc(Cl)cc2n1C(=O)c1ccc(C)cc1
rel: =
IC50 (µM): 0.89
//
sample-smiles: Cc1ccc(C(=O)n2c(C#N)nc3ccccc32)cc1
rel: >
IC50 (µM): 100
//
sample-smiles: CSc1nc2ccccc2n1Cc1ccc(C)cc1
rel: >
IC50 (µM): 100
//
sample-smiles: CSc1nc2ccccc2n1C(=O)c1ccc(Cl)cc1
rel: =
IC50 (µM): 1.1
//
sample-smiles: CSc1nc2ccccc2n1C(=O)c1ccccc1C(F)(F)F
rel: >
IC50 (µM): 100
//
sample-smiles: CSc1nc2ccccc2n1C(=O)c1ccccc1C
rel: >
IC50 (µM): 100
//
sample-smiles: COc1ccc(C(=O)n2c(SC)nc3ccccc32)cc1
rel: =
IC50 (µM): 3
//
sample-smiles: CSc1nc2cc3c(cc2n1C(=O)c1ccc(C)cc1)OCCO3
rel: =
IC50 (µM): 0.14
//
sample-smiles: Cc1ccc(C(=O)n2c(C)nc3ccccc32)cc1
rel: =
IC50 (µM): 3.43
//
sample-smiles: CSc1nc2ccccc2n1C(=O)c1ccncc1
rel: >
IC50 (µM): 100
//
sample-smiles: Cc1ccc(C(=O)n2c(-c3ccccc3)nc3ccccc32)cc1
rel: >
IC50 (µM): 100
//
sample-smiles: CSc1nc2ccccc2n1C(=O)c1ccc(C)c(F)c1
rel: =
IC50 (µM): 0.09
//
sample-smiles: Cc1ccc(C(=O)n2c(C)nc3ccccc32)cc1F
rel: =
IC50 (µM): 0.15
//
sample-smiles: C=CCSc1nc2ccccc2n1C(=O)c1ccc(C)cc1
rel: =
IC50 (µM): 5.44
//
sample-smiles: CSc1nc2ccccc2n1C(=O)c1ccc(C)cc1
rel: =
IC50 (µM): 0.39
//
sample-smiles: CSc1nc2ccc(C#N)cc2n1C(=O)c1ccc(C)c(F)c1
rel: =
IC50 (µM): 6.3
//
sample-smiles: COc1cc(C(=O)n2c(SC)nc3ccccc32)ccc1C
rel: =
IC50 (µM): 0.66
//
sample-smiles: CSc1nc2ccccc2n1C(=O)c1ccc2c(c1)OCCO2
rel: =
IC50 (µM): 1
//
sample-smiles: CSc1nc2ccccc2n1C(=O)Cc1ccccc1
rel: >
IC50 (µM): 100
//
sample-smiles: CSc1nc2ccccc2n1C(=O)c1ccsc1
rel: =
IC50 (µM): 2.4
//
sample-smiles: CSc1nc2ccccc2n1C(=O)c1ccc(C)c(Cl)c1
rel: =
IC50 (µM): 0.15
//
sample-smiles: CSc1nc2ccccc2n1C(=O)c1ccc(C)c(C)c1
rel: =
IC50 (µM): 1
//
sample-smiles: Cc1ccc(C(=O)n2ccc3ccccc32)cc1
rel: >
IC50 (µM): 100
//
sample-smiles: COc1ccc(C(=O)n2c(SC)nc3ccccc32)cc1OC
rel: =
IC50 (µM): 4
//
sample-smiles: CSc1nc2ccc(F)cc2n1C(=O)c1ccc(C)cc1
rel: =
IC50 (µM): 0.2
//
sample-smiles: COc1cc2nc(SC)n(C(=O)c3ccc(C)cc3)c2cc1OC
rel: =
IC50 (µM): 6.8
//
sample-smiles: CSc1nc2cc(F)ccc2n1C(=O)c1ccc(C)cc1
rel: =
IC50 (µM): 0.27
//
sample-smiles: CSc1nc2ccccc2n1C(=O)c1ccccc1
rel: =
IC50 (µM): 2.5
//
sample-smiles: CSc1nc2ccc(F)cc2n1C(=O)c1ccc(C)c(F)c1
rel: =
IC50 (µM): 0.26
//
sample-smiles: CSc1nc2cc3c(cc2n1C(=O)c1ccc(C)c(F)c1)OCO3
rel: =
IC50 (µM): 0.07
//
sample-smiles: CSc1nc2ccccc2n1C(=O)c1cccc(C(F)(F)F)c1
rel: =
IC50 (µM): 33.7
//
sample-smiles: CCc1nc2ccccc2n1C(=O)c1ccc(C)cc1
rel: =
IC50 (µM): 6.55
//
sample-smiles: CSc1nc2ccccc2n1C(=O)c1ccc(C(C)(C)C)cc1
rel: >
IC50 (µM): 100
//
sample-smiles: Cc1ccc(C(=O)n2c(C(F)(F)F)nc3ccccc32)cc1
rel: =
IC50 (µM): 17
//
sample-smiles: Cc1ccc(C(=O)n2nnc3ccccc32)cc1
rel: >
IC50 (µM): 100
//
sample-smiles: Cc1ccc(C(=O)n2c(C)nc3cc4c(cc32)OCCO4)cc1
rel: =
IC50 (µM): 7.5
//
sample-smiles: Cc1ccc(C(=O)n2c(N)nc3ccccc32)cc1
rel: >
IC50 (µM): 100
//
sample-smiles: CSc1nc2cc(F)ccc2n1C(=O)c1ccc(C)c(F)c1
rel: =
IC50 (µM): 0.1
